- target_desc: UniProt:Q04912
- Sequence (Q04912 25-1400, species assumed): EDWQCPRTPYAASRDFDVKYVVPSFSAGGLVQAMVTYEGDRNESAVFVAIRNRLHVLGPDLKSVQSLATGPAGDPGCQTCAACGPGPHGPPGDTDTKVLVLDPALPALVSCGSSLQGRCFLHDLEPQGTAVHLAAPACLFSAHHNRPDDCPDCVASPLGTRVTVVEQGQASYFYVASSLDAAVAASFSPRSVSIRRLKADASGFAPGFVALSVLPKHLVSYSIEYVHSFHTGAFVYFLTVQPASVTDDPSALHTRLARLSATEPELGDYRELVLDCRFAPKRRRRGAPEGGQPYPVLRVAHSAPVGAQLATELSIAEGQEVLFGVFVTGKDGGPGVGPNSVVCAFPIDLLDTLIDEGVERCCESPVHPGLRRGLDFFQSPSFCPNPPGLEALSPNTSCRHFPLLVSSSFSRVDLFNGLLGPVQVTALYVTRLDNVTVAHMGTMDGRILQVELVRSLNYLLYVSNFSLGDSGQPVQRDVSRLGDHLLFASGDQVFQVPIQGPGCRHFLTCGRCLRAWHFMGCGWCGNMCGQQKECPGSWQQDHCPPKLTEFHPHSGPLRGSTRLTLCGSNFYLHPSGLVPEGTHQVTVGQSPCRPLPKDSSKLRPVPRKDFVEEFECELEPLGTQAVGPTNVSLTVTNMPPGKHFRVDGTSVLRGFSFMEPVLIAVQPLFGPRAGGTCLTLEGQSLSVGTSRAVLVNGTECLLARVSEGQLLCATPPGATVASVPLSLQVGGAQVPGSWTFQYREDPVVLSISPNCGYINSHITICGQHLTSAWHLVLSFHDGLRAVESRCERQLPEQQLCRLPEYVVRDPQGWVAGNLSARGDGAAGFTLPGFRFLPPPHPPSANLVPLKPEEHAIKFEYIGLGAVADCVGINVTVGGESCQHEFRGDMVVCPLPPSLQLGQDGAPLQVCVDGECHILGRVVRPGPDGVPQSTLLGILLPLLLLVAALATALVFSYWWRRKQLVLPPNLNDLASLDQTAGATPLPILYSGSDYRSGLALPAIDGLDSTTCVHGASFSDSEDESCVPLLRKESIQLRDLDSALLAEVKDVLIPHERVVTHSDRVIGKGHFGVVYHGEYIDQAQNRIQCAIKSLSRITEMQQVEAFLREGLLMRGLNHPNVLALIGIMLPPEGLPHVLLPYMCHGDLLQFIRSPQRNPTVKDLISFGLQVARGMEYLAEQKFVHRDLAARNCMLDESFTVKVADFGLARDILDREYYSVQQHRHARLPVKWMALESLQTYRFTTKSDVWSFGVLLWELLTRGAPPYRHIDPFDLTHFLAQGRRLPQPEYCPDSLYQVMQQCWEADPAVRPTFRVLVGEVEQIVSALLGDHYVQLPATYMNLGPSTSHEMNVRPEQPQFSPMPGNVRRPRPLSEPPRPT
measured_quantity: IC50

smiles_record: O=C(Nc1ccc(Oc2ccnc3[nH]c(=O)[nH]c23)c(F)c1)c1cnn(-c2ccccc2)c1C(F)(F)F
measured_quantity: IC50
result: < 50 nM
//
smiles_record: CC(C)n1c(=O)[nH]c2nccc(Oc3ccc(NC(=O)c4cnn(-c5ccccc5)c4C(F)(F)F)cc3F)c21
measured_quantity: IC50
result: < 50 nM
//
smiles_record: CC(C)n1c(=O)[nH]c2nccc(Oc3ccc(NC(=O)c4cnc(-c5ccccc5)s4)cc3F)c21
measured_quantity: IC50
result: 50 to 500 nM

====

- target_desc: cMET (Homo sapiens)
pIC50: −log10 of the molar value.

smiles_record: CC(C)n1c(=O)[nH]c2nccc(Oc3ccc(NC(=O)c4cnn(-c5ccccc5)c4-c4ccccc4)cc3F)c21
pIC50: 6.30 to 7.30

smiles_record: COc1ccccc1-n1ncc(C(=O)Nc2ccc(Oc3ccnc4[nH]c(=O)n(C(C)C)c34)c(F)c2)c1C(F)(F)F
pIC50: 5.30 to 6.30

smiles_record: O=C(Nc1ccc(Oc2ccnc3[nH]c(=O)n(C4CCCC4)c23)c(F)c1)c1ncn(-c2ccccc2)c1C(F)(F)F
pIC50: 5.30 to 6.30

smiles_record: Cc1nn(-c2ccccc2)c(C)c1C(=O)Nc1ccc(Oc2ccnc3[nH]c(=O)n(C(C)C)c23)c(F)c1
pIC50: 6.30 to 7.30

====

Here we list molecules with their recorded IC50 when tested on cMET (Homo sapiens).

smiles_record: CC(C)n1c(=O)[nH]c2nccc(Oc3ccc(NC(=O)c4ccn(-c5ccccc5)n4)cc3F)c21
IC50: 500 to 5000 nM

smiles_record: CC(C)n1c(=O)[nH]c2nccc(Oc3ccc(NC(=O)c4cnn(C(C)(C)C)c4C(F)(F)F)cc3F)c21
IC50: 500 to 5000 nM

smiles_record: CC(C)n1c(=O)[nH]c2nccc(Oc3ccc(NC(=O)c4cnn(C5CCCCCC5)c4C(F)(F)F)cc3F)c21
IC50: 500 to 5000 nM

smiles_record: CC(C)n1c(=O)[nH]c2nccc(Oc3ccc(NC(=O)c4cnn(-c5ccccc5)c4C(F)(F)F)cc3F)c21
IC50: 500 to 5000 nM

====

Here we list compounds with their recorded IC50 when tested on UniProtKB Q04912.

compound: O=C(Nc1ccc(Oc2ccnc3[nH]c(=O)n(C4CCOC4)c23)c(F)c1)c1cnn(-c2ccccc2)c1C(F)(F)F (centres unmarked)
IC50: < 50 nM

compound: O=C(Nc1ccc(Oc2ccnc3[nH]c(=O)n(C4CCOCC4)c23)c(F)c1)c1cnn(-c2ccccc2)c1C(F)(F)F
IC50: 50 to 500 nM

compound: CC(C)n1c(=O)[nH]c2nccc(Oc3ccc(NC(=O)c4cnn(C5CCOCC5)c4C(F)(F)F)cc3F)c21
IC50: 50 to 500 nM

compound: Cc1c(C(=O)Nc2ccc(Oc3ccnc4[nH]c(=O)n(C(C)C)c34)c(F)c2)nnn1-c1ccccc1
IC50: 50 to 500 nM

compound: Cn1c(=O)[nH]c2nccc(Oc3ccc(NC(=O)c4ncn(-c5ccccc5)c4C(F)(F)F)cc3F)c21
IC50: < 50 nM

compound: CC(C)n1c(=O)[nH]c2nccc(Oc3ccc(NC(=O)c4cnn(-c5cccc6ccccc56)c4C(F)(F)F)cc3F)c21
IC50: 50 to 500 nM

compound: O=C(Nc1ccc(Oc2ccnc3[nH]c(=O)n(C4CCCC4)c23)c(F)c1)c1ncn(-c2ccccc2)c1C(F)(F)F
IC50: < 50 nM

compound: CCc1c(C(=O)Nc2ccc(Oc3ccnc4[nH]c(=O)n(C5CCCC5)c34)c(F)c2)cnn1-c1ccccc1
IC50: 50 to 500 nM

compound: CC(C)n1c(=O)[nH]c2nccc(Oc3ccc(NC(=O)c4cnn(-c5c(F)cccc5F)c4C(F)(F)F)cc3F)c21
IC50: < 50 nM

compound: Cc1nn(-c2ccccc2)c(C)c1C(=O)Nc1ccc(Oc2ccnc3[nH]c(=O)[nH]c23)c(F)c1
IC50: 50 to 500 nM

compound: CC(C)n1c(=O)[nH]c2nccc(Oc3ccc(NC(=O)c4cccc(Br)c4C(F)(F)F)cc3F)c21
IC50: 500 to 5000 nM

compound: CC(C)n1c(=O)[nH]c2nccc(Oc3ccc(NC(=O)c4cnn(C5CCCCCC5)c4C(F)(F)F)cc3F)c21
IC50: < 50 nM

compound: COc1ccccc1-n1ncc(C(=O)Nc2ccc(Oc3ccnc4[nH]c(=O)n(C(C)C)c34)c(F)c2)c1C(F)(F)F
IC50: 50 to 500 nM

compound: CC(C)n1c(=O)[nH]c2nccc(Oc3ccc(NC(=O)c4cn(-c5ccccc5)nn4)cc3F)c21
IC50: 500 to 5000 nM

====

Here we list molecules with their recorded IC50 when tested on cMET (Homo sapiens, UniProt P08581).
Sequence (P08581 25-1390): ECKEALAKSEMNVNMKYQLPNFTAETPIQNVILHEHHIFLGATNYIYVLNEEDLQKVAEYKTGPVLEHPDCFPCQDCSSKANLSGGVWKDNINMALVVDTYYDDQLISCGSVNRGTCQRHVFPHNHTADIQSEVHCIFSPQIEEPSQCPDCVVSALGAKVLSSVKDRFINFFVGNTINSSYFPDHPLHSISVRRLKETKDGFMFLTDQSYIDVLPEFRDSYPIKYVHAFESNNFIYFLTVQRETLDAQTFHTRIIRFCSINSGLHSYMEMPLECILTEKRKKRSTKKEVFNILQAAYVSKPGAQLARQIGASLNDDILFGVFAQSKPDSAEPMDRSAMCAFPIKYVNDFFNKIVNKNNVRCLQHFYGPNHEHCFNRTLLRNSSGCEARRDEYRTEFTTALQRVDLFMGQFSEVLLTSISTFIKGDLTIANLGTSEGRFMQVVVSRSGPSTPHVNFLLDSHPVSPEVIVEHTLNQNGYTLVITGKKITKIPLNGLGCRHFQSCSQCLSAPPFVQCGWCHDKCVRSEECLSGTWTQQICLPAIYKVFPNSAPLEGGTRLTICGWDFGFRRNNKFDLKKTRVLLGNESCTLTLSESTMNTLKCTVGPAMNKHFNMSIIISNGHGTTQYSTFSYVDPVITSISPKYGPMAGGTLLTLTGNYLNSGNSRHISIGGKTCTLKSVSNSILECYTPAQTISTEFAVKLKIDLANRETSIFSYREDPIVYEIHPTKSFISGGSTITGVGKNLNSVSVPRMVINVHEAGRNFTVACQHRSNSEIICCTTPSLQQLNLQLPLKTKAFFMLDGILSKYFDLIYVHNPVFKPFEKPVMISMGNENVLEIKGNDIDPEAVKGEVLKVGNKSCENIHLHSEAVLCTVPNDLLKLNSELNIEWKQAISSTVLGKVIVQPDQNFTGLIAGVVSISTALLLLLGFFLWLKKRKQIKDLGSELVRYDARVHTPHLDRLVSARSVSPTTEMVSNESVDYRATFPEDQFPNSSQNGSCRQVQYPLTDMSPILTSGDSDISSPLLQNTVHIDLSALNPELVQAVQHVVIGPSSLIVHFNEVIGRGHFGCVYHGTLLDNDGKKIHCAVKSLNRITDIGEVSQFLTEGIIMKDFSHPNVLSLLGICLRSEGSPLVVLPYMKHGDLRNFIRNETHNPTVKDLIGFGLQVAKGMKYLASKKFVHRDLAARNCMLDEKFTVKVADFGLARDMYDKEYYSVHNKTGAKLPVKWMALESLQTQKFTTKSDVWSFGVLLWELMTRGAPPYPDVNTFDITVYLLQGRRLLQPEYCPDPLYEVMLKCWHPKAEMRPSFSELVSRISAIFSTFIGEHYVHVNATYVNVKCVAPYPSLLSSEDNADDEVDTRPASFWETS

smiles_record: CN1CCC(n2c(=O)[nH]c3nccc(Oc4ccc(NC(=O)c5cnn(-c6ccccc6)c5C(F)(F)F)cc4F)c32)CC1
target_desc: cMET (Homo sapiens, UniProt P08581)
IC50: > 5 µM
//
smiles_record: O=C(Nc1ccc(Oc2ccnc3[nH]c(=O)n(C4CCOCC4)c23)c(F)c1)c1cnn(-c2ccccc2)c1C(F)(F)F
target_desc: cMET (Homo sapiens, UniProt P08581)
IC50: 0.5 to 5 µM
//
smiles_record: CC(C)n1c(=O)[nH]c2nccc(Oc3ccc(NC(=O)c4ccc(Br)cc4C(F)(F)F)cc3F)c21
target_desc: cMET (Homo sapiens, UniProt P08581)
IC50: > 5 µM
//
smiles_record: CC(C)n1c(=O)[nH]c2nccc(Oc3ccc(NC(=O)c4cnn(-c5c(F)cccc5F)c4C(F)(F)F)cc3F)c21
target_desc: cMET (Homo sapiens, UniProt P08581)
IC50: 0.5 to 5 µM
//
smiles_record: O=C(Nc1ccc(Oc2ccnc3[nH]c(=O)[nH]c23)c(F)c1)c1cnn(-c2ccccc2)c1C(F)(F)F
target_desc: cMET (Homo sapiens, UniProt P08581)
IC50: > 5 µM
//
smiles_record: O=C(Nc1ccc(Oc2ccnc3[nH]c(=O)n(C4CCOCC4)c23)c(F)c1)c1ncn(-c2ccccc2)c1C(F)(F)F
target_desc: cMET (Homo sapiens, UniProt P08581)
IC50: > 5 µM
//
smiles_record: O=C(Nc1ccc(Oc2ccnc3[nH]c(=O)n(C4CCCC4)c23)c(F)c1)c1cnn(-c2ccccc2)c1C(F)(F)F
target_desc: cMET (Homo sapiens, UniProt P08581)
IC50: 0.5 to 5 µM
//
smiles_record: Cc1ccc(-n2ncc(C(=O)Nc3ccc(Oc4ccnc5[nH]c(=O)n(C(C)C)c45)c(F)c3)c2C(F)(F)F)cc1
target_desc: cMET (Homo sapiens, UniProt P08581)
IC50: > 5 µM
//
smiles_record: CC(C)n1c(=O)[nH]c2nccc(Oc3ccc(NC(=O)c4cnn(-c5ccccc5F)c4C(F)(F)F)cc3F)c21
target_desc: cMET (Homo sapiens, UniProt P08581)
IC50: 0.5 to 5 µM
